- Tested on: corn
- protocol_summary: Test B pre/postemergence corn
- Assay type: in vivo, Zea mays
- assay_context: Postemergence, Rate 250 g/ha; scale 0 to 10, 0 no effect, 10 complete control
- Description: […] At the same time, these crop and weed species were also treated with postemergence applications of test chemicals formulated in the same manner. […] Treated plants and controls were maintained in a greenhouse for twelve to sixteen days, after which all species were compared to controls and visually evaluated. […]
quantity_measured: Corn plant response rating

- smiles_text: "CCN(CC)C(=O)n1oc(=O)n(-c2cccc3c2CCCC3)c1=O"
  assayed_target: "corn"
  quantity_measured: "Corn plant response rating"
  observed: 0
- smiles_text: "CC(C)N(C(=O)n1oc(=O)n(-c2cc(Cl)cc(Cl)c2)c1=O)C1=CCOCC1"
  assayed_target: "corn"
  quantity_measured: "Corn plant response rating"
  observed: 0
- smiles_text: "CC(C)N(C(=O)n1oc(=O)n(Cc2cccs2)c1=O)c1ccc(F)cc1"
  assayed_target: "corn"
  quantity_measured: "Corn plant response rating"
  observed: 0
- smiles_text: "CCc1ccccc1-n1c(=O)on(C(=O)N(c2ccc(F)cc2F)C(C)C)c1=O"
  assayed_target: "corn"
  quantity_measured: "Corn plant response rating"
  observed: 0
- smiles_text: "CCN(C(=O)n1oc(=O)n(-c2c(C)cc(C)cc2C)c1=O)C1CCCCC1"
  assayed_target: "corn"
  quantity_measured: "Corn plant response rating"
  observed: 2
- smiles_text: "Cc1nn(C)c(C)c1-n1c(=O)on(C(=O)N(c2ccc(F)cc2)C(C)C)c1=O"
  assayed_target: "corn"
  quantity_measured: "Corn plant response rating"
  observed: 0
